Target: Carbonic anhydrase 7 (Homo sapiens)
Sequence (P43166 whole entry): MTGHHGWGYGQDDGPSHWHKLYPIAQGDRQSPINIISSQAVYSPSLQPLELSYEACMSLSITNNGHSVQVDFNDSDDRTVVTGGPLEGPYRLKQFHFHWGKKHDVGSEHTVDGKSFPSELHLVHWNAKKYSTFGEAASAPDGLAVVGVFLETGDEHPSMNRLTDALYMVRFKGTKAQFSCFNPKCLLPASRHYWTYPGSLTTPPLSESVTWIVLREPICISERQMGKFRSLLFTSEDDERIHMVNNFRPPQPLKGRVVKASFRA
Experiment: Inhibition of human recombinant carbonic anhydrase 7 preincubated for 15 mins to 72 hrs measured after 6 hrs by stopped flow CO2 hydration method
Details: tested as the Zn salt or complex
VALUE TYPE: Ki (µM)
Output spec: scalar in µM, unitless text.

Please supply the value of reported Ki for the item [O-][n+]1ccccc1S [PYRITHIONE ZINC] 7.76

* * *

Target: Carbonic anhydrase 4 (Homo sapiens, UniProt P22748)
Sequence (P22748 whole entry): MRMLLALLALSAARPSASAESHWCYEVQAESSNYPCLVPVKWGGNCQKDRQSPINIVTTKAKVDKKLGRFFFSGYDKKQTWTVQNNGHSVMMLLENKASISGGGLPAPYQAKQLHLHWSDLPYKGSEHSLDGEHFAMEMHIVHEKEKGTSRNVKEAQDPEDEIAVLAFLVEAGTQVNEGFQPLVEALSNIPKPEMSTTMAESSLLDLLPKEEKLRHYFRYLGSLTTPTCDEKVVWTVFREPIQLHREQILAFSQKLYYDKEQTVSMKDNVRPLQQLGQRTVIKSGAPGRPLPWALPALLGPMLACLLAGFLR
Assay: Inhibition of human recombinant carbonic anhydrase 4 preincubated for 15 mins to 72 hrs measured after 15 mins by stopped flow CO2 hydration method
Conditions: tested as the Zn salt or complex
VALUE TYPE: Ki (µM)
Answer with a number only, understood to be in µM.

Input `[O-][n+]1ccccc1S` , output reported Ki. 6.13

* * *

Molecular target: Carbonic anhydrase 1 (Homo sapiens)
Sequence (P00915 whole entry): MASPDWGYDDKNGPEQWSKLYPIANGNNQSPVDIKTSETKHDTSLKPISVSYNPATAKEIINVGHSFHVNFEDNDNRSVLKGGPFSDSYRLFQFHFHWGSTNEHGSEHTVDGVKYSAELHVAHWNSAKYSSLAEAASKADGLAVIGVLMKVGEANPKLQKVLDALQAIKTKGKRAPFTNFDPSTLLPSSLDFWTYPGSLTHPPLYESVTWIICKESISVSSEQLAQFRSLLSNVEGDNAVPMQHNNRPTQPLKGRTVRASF
Assay: Inhibition of human recombinant carbonic anhydrase 1 preincubated for 15 mins to 72 hrs measured after 6 hrs by stopped flow CO2 hydration method
Settings: tested as the Zn salt or complex
pKi: −log10 of the molar value.
VALUE TYPE: pKi

Using the record for `[O-][n+]1ccccc1S` , state its measured pKi. < 3.70

* * *

Target: Carbonic anhydrase 5B, mitochondrial (Homo sapiens, UniProt Q9Y2D0)
Sequence (Q9Y2D0 whole entry): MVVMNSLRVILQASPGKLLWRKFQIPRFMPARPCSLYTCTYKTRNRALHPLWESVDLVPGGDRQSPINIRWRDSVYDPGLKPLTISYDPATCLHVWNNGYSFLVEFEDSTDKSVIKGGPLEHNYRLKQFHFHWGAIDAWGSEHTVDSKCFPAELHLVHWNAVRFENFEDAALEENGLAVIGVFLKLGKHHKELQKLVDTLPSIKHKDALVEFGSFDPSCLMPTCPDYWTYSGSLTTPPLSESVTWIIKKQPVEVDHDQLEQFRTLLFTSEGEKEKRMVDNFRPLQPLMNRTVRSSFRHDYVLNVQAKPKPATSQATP
Assay: Inhibition of human recombinant carbonic anhydrase 5B preincubated for 15 mins to 72 hrs measured after 15 mins by stopped flow CO2 hydration method
VALUE TYPE: pKi
# reply with the number alone; pKi is -log10 of concentration in mol/L

Please indicate pKi recorded for `Oc1ccc2ccccc2n1` 6.12

* * *

Target: UniProt:P07451
Sequence (P07451 whole entry): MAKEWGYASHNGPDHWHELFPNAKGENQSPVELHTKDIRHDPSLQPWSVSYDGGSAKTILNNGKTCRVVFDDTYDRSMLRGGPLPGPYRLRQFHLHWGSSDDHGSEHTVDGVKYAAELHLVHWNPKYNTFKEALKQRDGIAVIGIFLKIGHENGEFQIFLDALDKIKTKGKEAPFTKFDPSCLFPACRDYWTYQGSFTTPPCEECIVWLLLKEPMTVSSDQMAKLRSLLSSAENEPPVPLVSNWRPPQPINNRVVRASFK
Test: Inhibition of human recombinant carbonic anhydrase 3 preincubated for 15 mins to 72 hrs measured after 15 mins by stopped flow CO2 hydration method
Conditions: tested as the Zn salt or complex
VALUE TYPE: pKi
Conceptually, pKi converts a concentration in mol/L into minus its log10.

Fill in pKi for record `[O-][n+]1ccccc1S` 5.79

* * *

Entries and their pKi values follow.
Target: Carbonic anhydrase 9 (Homo sapiens, UniProt Q16790)
Test: Inhibition of human recombinant carbonic anhydrase 9 preincubated for 15 mins to 72 hrs measured after 6 hrs by stopped flow CO2 hydration method
Quick note: pKi means taking -log10 of the concentration in moles per liter.

Please review the following examples before continuing.
MOLECULE | EXPERIMENTAL SYSTEM | pKi
CCOP(=S)(OCC)Oc1ccc2c(C)c(Cl)c(=O)oc2c1 [COUMAPHOS] | Carbonic anhydrase 9 (Homo sapiens, UniProt Q16790) | 5.19
O=C(S)c1ccccc1 [THIOBENZOIC ACID] | Carbonic anhydrase 9 (Homo sapiens, UniProt Q16790) | 5.25
Oc1ccc2ccccc2n1 | Carbonic anhydrase 9 (Homo sapiens, UniProt Q16790) | 7.09

Recall the reported pKi of `Cc1cc(C)o/c(=N/O)c1` on Carbonic anhydrase 9 (Homo sapiens, UniProt Q16790) and write it down. 7.80

# return pKi of `O/N=c1/ccc2ccccc2o1` (system: Carbonic anhydrase 9 (Homo sapiens, UniProt Q16790)) 7.24

* * *

Target: Carbonic anhydrase 14 (Homo sapiens, UniProt Q9ULX7)
Sequence (Q9ULX7 whole entry): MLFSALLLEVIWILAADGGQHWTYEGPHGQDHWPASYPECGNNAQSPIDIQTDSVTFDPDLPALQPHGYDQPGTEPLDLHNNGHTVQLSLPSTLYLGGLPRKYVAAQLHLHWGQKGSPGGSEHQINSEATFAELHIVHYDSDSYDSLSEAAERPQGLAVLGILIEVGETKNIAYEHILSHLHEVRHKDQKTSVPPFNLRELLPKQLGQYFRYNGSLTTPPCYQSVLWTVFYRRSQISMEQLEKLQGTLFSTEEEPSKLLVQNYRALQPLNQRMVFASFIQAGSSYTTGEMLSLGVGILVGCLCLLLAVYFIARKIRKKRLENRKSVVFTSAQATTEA
Experiment: Inhibition of human recombinant carbonic anhydrase 14 preincubated for 15 mins to 72 hrs measured after 15 mins by stopped flow CO2 hydration method
Conditions: tested as the Zn salt or complex
VALUE TYPE: pKi
In textbook form, pKi equals minus log to base ten of the concentration in mol/L.

Tell us which pKi value is on record for `[O-][n+]1ccccc1S` 5.54
